system_tested: SmTAL1 (Sm22.6) (Schistosoma mansoni, UniProt P14202)
Construct: gene A12; recombinant, E. coli, N-terminal GST fusion cleaved with thrombin; EF-hand N-terminal plus DLC-like C-terminal domain; dimer
Sequence (P14202 1-190): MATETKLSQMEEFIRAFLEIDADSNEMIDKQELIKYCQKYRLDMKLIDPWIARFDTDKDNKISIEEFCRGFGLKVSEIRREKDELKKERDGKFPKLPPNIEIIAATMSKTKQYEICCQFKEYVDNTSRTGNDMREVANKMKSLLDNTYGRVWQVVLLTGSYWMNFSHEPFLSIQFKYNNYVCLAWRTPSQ
protocol_description: differential scanning fluorimetry (Sypro Orange)
Type: binding
stated_conditions: 250 µM; 0.25 mM drug, 5 μM protein, 1% DMSO, 0.8 mM CaCl2, 50 mM Hepes pH 7.5, 150 mM NaCl; absolute Tm, not a shift (DMSO control in the 1st table, row 5)
readout: melting temperature (Tm)

Record for O=C(C1CCCCC1)N1CC(=O)N2CCc3ccccc3C2C1 (stereo not shown) under target or system SmTAL1 (Sm22.6) (Schistosoma mansoni, UniProt P14202): melting temperature (Tm) reported as 61.7 ± 0.2 °C

Record for "CN(C)CCCN1c2ccccc2Sc2ccc(Cl)cc21" under target or system SmTAL1 (Sm22.6) (Schistosoma mansoni, UniProt P14202): melting temperature (Tm) reported as 61.3 ± 0.3 °C

Record for "CN1CCN(CCCN2c3ccccc3Sc3ccc(C(F)(F)F)cc32)CC1" under target or system SmTAL1 (Sm22.6) (Schistosoma mansoni, UniProt P14202): melting temperature (Tm) reported as 62.2 ± 0.8 °C

Record for "NCCCCCCNS(=O)(=O)c1cccc2c(Cl)cccc12" under target or system SmTAL1 (Sm22.6) (Schistosoma mansoni, UniProt P14202): melting temperature (Tm) reported as 61.5 ± 0.3 °C
